Field: collision cross section. Provide a value for each of the sequences that follow.
assay: collision cross section of modified peptide (TIMS, N2, iRT-aligned); higher = larger / more extended gas-phase ion; settings: charge state: 2; modification: Glutarylation
Answers are plain numbers, in Å².

- Item Sequence: "SPSDSGYSYETIGKTTK [_SPSDSGYSYETIGK(Gluratylation)TTK_]"
  Units Of Measure: "Å²"
  collision cross section: 456.74
- Item Sequence: "PSVSTKLISK [_PSVSTK(Gluratylation)LISK_]"
  Units Of Measure: "Å²"
  collision cross section: 361.01
- Item Sequence: "IDLPAENSNSETIIITGKR [_IDLPAENSNSETIIITGK(Gluratylation)R_]"
  Units Of Measure: "Å²"
  collision cross section: 499.21
- Item Sequence: "TLDEILQEKK [_TLDEILQEK(Gluratylation)K_]"
  Units Of Measure: "Å²"
  collision cross section: 387.75
- Item Sequence: "VPTTEKPTVTVNFR [_VPTTEK(Gluratylation)PTVTVNFR_]"
  Units Of Measure: "Å²"
  collision cross section: 428.25

I have 5 sequences here; please give me collision cross section for each one.
1. GEVQVSDKER [_GEVQVSDK(Gluratylation)ER_]
2. GTISAPGKVVTAAAQAK [_GTISAPGK(Gluratylation)VVTAAAQAK_]
3. VETTVTSLKTK [_VETTVTSLK(Gluratylation)TK_]
4. VQGGALEDSQLVAGVAFKK [_VQGGALEDSQLVAGVAFK(Gluratylation)K_]
5. TPNLYIYSKK [_TPNLYIYSK(Gluratylation)K_]

368.37
445.81
392.12
484.97
398.57

###

assay: collision cross section of modified peptide (TIMS, N2, iRT-aligned); higher = larger / more extended gas-phase ion; details: charge state: 2; modification: Acetyl (K)
± gives the standard deviation.
Assay Metric: collision cross section
A complete answer gives the number and then names the unit.

Reference set, count: 3
- Item Sequence: "LEEVTGKLQVAR [_LEEVTGK(Acetyl (K))LQVAR_]"
  collision cross section: "391.97 ± 0.61 Å²"
- Item Sequence: "GSLGAQKLANTCFNEIEK [_GSLGAQK(Acetyl (K))LANTCFNEIEK_]"
  collision cross section: "470.8 Å²"
- Item Sequence: "GTVPDDAVEALADSLGKK [_GTVPDDAVEALADSLGK(Acetyl (K))K_]"
  collision cross section: "449.76 ± 3.1 Å²"

For the 3 sequences below, give their collision cross section values.
1. DTGEKLTVAENEAETK [_DTGEK(Acetyl (K))LTVAENEAETK_]
2. LGNDFHTNKR [_LGNDFHTNK(Acetyl (K))R_]
3. IHVQSSSDSSDEPAEKR [_IHVQSSSDSSDEPAEK(Acetyl (K))R_]

1: 441.95 ± 2.1 Å²; 2: 373.86 ± 3.5 Å²; 3: 446.96 ± 2.2 Å²

Please state collision cross section for every sequence in the list that follows.
1. HELQANCYEEVKDR [_HELQANCYEEVK(Acetyl (K))DR_]
2. GADFLVTEVENGGSLGSKK [_GADFLVTEVENGGSLGSK(Acetyl (K))K_]
3. GGPGSTLSFVGKR [_GGPGSTLSFVGK(Acetyl (K))R_]

["446.57 Å²", "465.51 Å²", "381.14 ± 0.21 Å²"]

Each sequence below has a recorded value; state its collision cross section.
1. ITESVAETAQTIKK [_ITESVAETAQTIK(Acetyl (K))K_]
2. SPDEAYAIAKK [_SPDEAYAIAK(Acetyl (K))K_]
3. TQAYQDQKPGTSGLR [_TQAYQDQK(Acetyl (K))PGTSGLR_]
4. SDDESSQKDIK [_SDDESSQK(Acetyl (K))DIK_]
5. IISSIEQKEENK [_IISSIEQK(Acetyl (K))EENK_]

1: 418.11 ± 1.3 Å²; 2: 369.21 ± 0.94 Å²; 3: 429.11 ± 1.6 Å²; 4: 374.03 ± 0.38 Å²; 5: 401.35 ± 0.23 Å²

Please look at the items below and tell me collision cross section for each one, in order.
1. LQEKVESAQSEQK [_LQEK(Acetyl (K))VESAQSEQK_]
2. ITLSKHQNVQLPR [_ITLSK(Acetyl (K))HQNVQLPR_]
3. VTLEVGKVIQQGR [_VTLEVGK(Acetyl (K))VIQQGR_]
4. KFGVLSDNFK [_K(Acetyl (K))FGVLSDNFK_]
5. LDHLAEKFR [_LDHLAEK(Acetyl (K))FR_]
6. LQAAYAGDKADDIQK [_LQAAYAGDK(Acetyl (K))ADDIQK_]
7. SPSDSGYSYETIGKTTK [_SPSDSGYSYETIGK(Acetyl (K))TTK_]

412.85 ± 1.8 Å²
436.23 ± 3.2 Å²
405.94 ± 0.47 Å²
370.76 ± 0.46 Å²
371.59 ± 0.95 Å²
429.91 ± 2.1 Å²
448.1 ± 2.3 Å²

Report collision cross section for each item below.
1. DAIHFYNKSLAEHR [_DAIHFYNK(Acetyl (K))SLAEHR_]
2. TEVLSPNSKVESK [_TEVLSPNSK(Acetyl (K))VESK_]

["449.95 Å²", "411.3 ± 1.6 Å²"]

Look at each sequence and report its collision cross section.
1. VQGGALEDSQLVAGVAFKK [_VQGGALEDSQLVAGVAFK(Acetyl (K))K_]
2. STGLELETPSLVPVKK [_STGLELETPSLVPVK(Acetyl (K))K_]
3. ANEKTESSSAQQVAVSR [_ANEK(Acetyl (K))TESSSAQQVAVSR_]
4. LFVGGIKEDTEEHHLR [_LFVGGIK(Acetyl (K))EDTEEHHLR_]
5. GEVGAGAGPGAQAGPSAKR [_GEVGAGAGPGAQAGPSAK(Acetyl (K))R_]
6. VSPASSVDSNIPSSQGYKK [_VSPASSVDSNIPSSQGYK(Acetyl (K))K_]

1. 468.5 Å²
2. 431.84 ± 2.2 Å²
3. 433.42 ± 1.8 Å²
4. 494.34 Å²
5. 420.33 ± 2.6 Å²
6. 458.38 ± 2.6 Å²

Batch: collision cross section for all items listed.
1. ATVASSTQKFQDLGVK [_ATVASSTQK(Acetyl (K))FQDLGVK_]
2. SLGEPAAGEGSAKR [_SLGEPAAGEGSAK(Acetyl (K))R_]

["445.22 ± 2.2 Å²", "382.38 ± 0.43 Å²"]

Could you report collision cross section for every entry in the following list?
1. DLGKFQVATDALK [_DLGK(Acetyl (K))FQVATDALK_]
2. DESFLGKLGGTLAR [_DESFLGK(Acetyl (K))LGGTLAR_]
3. VETTVTSLKTK [_VETTVTSLK(Acetyl (K))TK_]
4. IPQEKCILQTDVK [_IPQEK(Acetyl (K))CILQTDVK_]
5. SLEEEGAAHSGKR [_SLEEEGAAHSGK(Acetyl (K))R_]

405.65 ± 0.97 Å²
410.82 ± 1.1 Å²
378.83 ± 0.45 Å²
431.12 ± 1.2 Å²
412.49 ± 2.4 Å²

###

assay: collision cross section of modified peptide (TIMS, N2, iRT-aligned); higher = larger / more extended gas-phase ion; conditions: charge state: 2; modification: Succinyl
Please provide measured collision cross section for the entries that follow.
Give bare numbers, in Å².

Example cases with answers are listed next.
- Item Sequence: "VGEFSGANKEK [_VGEFSGANK(Succinyl)EK_]"
  Assay Metric: "collision cross section"
  Units Of Measure: "Å²"
  Result Value: 357.27
- Item Sequence: "SPDEAYAIAKK [_SPDEAYAIAK(Succinyl)K_]"
  Assay Metric: "collision cross section"
  Units Of Measure: "Å²"
  Result Value: 374.28
- Item Sequence: "GEVGAGAGPGAQAGPSAKR [_GEVGAGAGPGAQAGPSAK(Succinyl)R_]"
  Assay Metric: "collision cross section"
  Units Of Measure: "Å²"
  Result Value: 417.99

Provide the reported collision cross section of each entry below, same order.
1. SSFAYKDQNENR [_SSFAYK(Succinyl)DQNENR_]
2. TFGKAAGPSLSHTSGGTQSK [_TFGK(Succinyl)AAGPSLSHTSGGTQSK_]
3. GEVQVSDKER [_GEVQVSDK(Succinyl)ER_]
4. LFVGGIKEDTEEHHLR [_LFVGGIK(Succinyl)EDTEEHHLR_]

1. 400.73
2. 476.24
3. 361.33
4. 497.55

###

For each of the sequences below, state its collision cross section.
assay: collision cross section of modified peptide (TIMS, N2, iRT-aligned); higher = larger / more extended gas-phase ion; conditions: charge state: 3; modification: GlyGly (K)
Numbers only, in Å².

The following sequences have reported results that may help.
- Item Sequence: "ASNAAVKLAESK [_ASNAAVK(GlyGly (K))LAESK_]"
  Units Of Measure: "Å²"
  Result Value: 457.62
- Item Sequence: "VDVEVPDVSLEGPEGKLK [_VDVEVPDVSLEGPEGK(GlyGly (K))LK_]"
  Units Of Measure: "Å²"
  Result Value: 497.08
- Item Sequence: "LGNDFHTNKR [_LGNDFHTNK(GlyGly (K))R_]"
  Units Of Measure: "Å²"
  Result Value: 447.63
- Item Sequence: "GAEKTEVAEPR [_GAEK(GlyGly (K))TEVAEPR_]"
  Units Of Measure: "Å²"
  Result Value: 448.79
- Item Sequence: "TGGTQTDLFTCGKCK [_TGGTQTDLFTCGK(GlyGly (K))CK_]"
  Units Of Measure: "Å²"
  Result Value: 489.77

State the recorded collision cross section for every item in the following list.
1. FLQEFYQDDELGKK [_FLQEFYQDDELGK(GlyGly (K))K_]
2. VFIGNLNTLVVKKK [_VFIGNLNTLVVK(GlyGly (K))KK_]
3. SKLLFSNTAAQK [_SK(GlyGly (K))LLFSNTAAQK_]
4. SGNLTEDDKHNNAK [_SGNLTEDDK(GlyGly (K))HNNAK_]
5. ILDLKTGTVK [_ILDLK(GlyGly (K))TGTVK_]
6. IGNSYFKEEK [_IGNSYFK(GlyGly (K))EEK_]

[512.67, 502.69, 447.27, 495.64, 439.15, 442.05]
